- Tested on: IAPV protease
- EXPERIMENT NOTES: Measurement of IAPV protease activity using purified enzyme (fluorescent peptide substrate)
- Format: biochemical, Israeli acute paralysis virus (IAPV)
- PROTOCOL CONDITIONS: inhibitors at final concentration of 1 mM, pre-incubated at 37° C. for 1 hour; fluorescence in absence of inhibitors = 100%
The compounds listed here are annotated with their Relative Activity (%) of IAPV protease.
Hi! Could you send only the number? It should be in %, unit omitted.

Examples from the recorded data:
QUERY: Give the reported value of Relative Activity (%) of IAPV protease for this record: O=C(O)c1cc2ccccc2s1 [TNCA, benzo[b]thiophene-2-carboxylic acid]
RESULT: 71

QUERY: Give the reported value of Relative Activity (%) of IAPV protease for this record: CCOC(=O)[C@H]1O[C@@H]1C(=O)N[C@@H](CC(C)C)C(=O)NCCC(C)C [E-64d]
RESULT: 23

QUERY: Give the reported value of Relative Activity (%) of IAPV protease for this record: O=C(NC1CC1)C(=O)C(Cc1ccccc1)NC(=O)[C@H]1CCC(=O)N1Cc1ccccc1 (some centres unmarked)
RESULT: 22

QUERY: Give the reported value of Relative Activity (%) of IAPV protease for this record: Cc1nc(-c2ccccc2F)c(C(=O)NC(Cc2ccccc2)C(=O)C(N)=O)o1 (centres unmarked)
RESULT: 29

QUERY: Give the reported value of Relative Activity (%) of IAPV protease for this record: CC(C)CCNC(=O)[C@H](CC(C)C)NC(=O)[C@H]1O[C@@H]1C(=O)O [E-64c]
RESULT: 22

More entries:
QUERY: Give the reported value of Relative Activity (%) of IAPV protease for this record: `CCCNC(=O)[C@H]1O[C@@H]1C(=O)N[C@H](C(=O)N1CCC[C@H]1C(=O)O)[C@@H](C)CC`
RESULT: 4

QUERY: Give the reported value of Relative Activity (%) of IAPV protease for this record: `CCCNC(=O)[C@H]1O[C@@H]1C(=O)N[C@H](C(=O)N1CCC[C@H]1C(=O)OC)[C@@H](C)CC`
RESULT: 32

QUERY: Give the reported value of Relative Activity (%) of IAPV protease for this record: `CCOC(=O)[C@H]1O[C@@H]1C(=O)N[C@@H](CC(C)C)C(=O)NCCc1ccc(O)cc1`
RESULT: 17
